Assay: Apparent pKa of LNP formulations, TNS fluorescence assay
Format: physicochemical
Details: LNP cationic lipid/DSPC/cholesterol/DMG-PEG 50/10/38.5/1.5 mol %, pH 3 to 9
metric: Apparant Pka

Some entries whose results are on file:
CCCCCCCCCCCCOCC(CN(CCCCCC(=O)OCC(CCCCCC)CCCCCCCC)CCN(CCO)C1CC1)OCCCCCCCCCCCC (centres unmarked): 5.351
CCCCCCCCCCCCOCC(CN(CCO)CCCCCC(=O)OCC(CCCCCC)CCCCCCCC)OC(=O)CC (centres unmarked): 4.957
CCCCCCCCCCCCOCC(CN(CCCCCC(=O)OCC(CCCCCC)CCCCCCCC)CCN(CCO)C1CCCCC1)OC(C)=O (centres unmarked): 5.49
CCCCCCCCCCCCOCC(O)CN(CCCCCC(=O)OCC(CCCCCC)CCCCCCCC)CCN(CC)CC (centres unmarked): 7.701
CCCCCCCCCCCCOCC(O)CN(CCCCCC(=O)OCC(CCCCCC)CCCCCCCC)CCN1CCCCC1 (centres unmarked): 7.327
CCCCCCCCC(CCCCCCCC)COC(=O)CCOCC(CN(C)CCN(CCO)C1CCCCCCC1)OCCC(=O)OCC(CCCCCCCC)CCCCCCCC (centres unmarked): 6.539
CCCCCCCCC(CCCCCCCC)CC(=O)OCC(CCCCN(C)CCN(CCO)C1CCC1)COC(=O)CC(CCCCCCCC)CCCCCCCC: 6.749
CCCCCCCCCCCCOCC(CN(CCCCCC(=O)OCCCCCCCCCC)CCN(CCO)C1CCC1)OCCCCCCCC (centres unmarked): 6.263
CCCCCCCCC(CCCCCCCC)CC(=O)OCC(CCCCN(CCO)C1CCC1)COC(=O)CC(CCCCCCCC)CCCCCCCC: 6.403
CCCCCCCCCCCCOCC(CN(CCCCCC(=O)OCC(CCCCCC)CCCCCCCC)CCN(CCO)C1CCCC1)OCCCCCC (centres unmarked): 6.005

a. CCCCC/C=C\C/C=C\CCCCCCCC(=O)OCC(CCCCN(CCO)C1CCCCCCC1)COC(=O)CC(CCCCCC)CCCCCCCC (centres unmarked)
b. CCCCCCCCC(CCCCCC)CC(=O)OCC(CN(CCO)C1CCC1)OC(=O)CC(CCCCCC)CCCCCCCC (centres unmarked)
q: For the two items a and b , which reports the higher Apparant Pka value? Your answer should be the label attached to the chosen record.
a: a
(a: 6.488, b: 3.519)
